Where do the numbers come from? From patent US20240002497A1.

Please provide measured EC50 for the entries that follow.
Molecular target: T1, rhNav1.7α + β1-β2-β3 (rhesus monkey)
T1 construct: also called rhNav1.7-beta1-beta2-beta3; rhNav1.7-β1-β2-β3
Assay: binding FACS, CHO FlpIn
One number for each entry, in nM.

F010302346 (VHH) VHH: EVQLVESGGGVVQPGGSLRLSCAASHRAFIRDVFTGWYRQAPGKQRELVARIYESGNTQYADSAKGRFTISRDNAKKTVYLQMNSLRPEDTALYYCLFSGTISTGREYRSGDYWGQGTLVTVSS :: 12

Next binder, please.
Kindly note the recorded EC50 for F010302361 (VHH) VHH: EVQLVESGGGVVQPGGSLRLSCAASHRQFIRDVFTGWYRQAPGKQRELVARIYEGGNTQYADSVKGRFTISRDNAKKTVYLQMNSLRPEDTALYYCLFSGTISTGREYRSGDYWGQGTLVTVSS , which is 11
